The origin of these recorded values is the supplement of paper PMC9170038.

- Tested on: MS2 coat protein
- METHOD_SUMMARY: apparent KD of MS2 coat protein; designed switch direction (-1 OFF switch, 1 ON switch): 1; higher = weaker reporter binding
- MEASUREMENT_SETUP: Eterna round: R95; input ligand: none
Quick list: apparent KD of MS2 coat protein per entry.
Value expressed in nM; do not type the unit.

apparent KD of MS2 coat protein for GAAGGAUGAGCGUAGGAUAUAGGAGGAGUGACAUGAGGAUCACCCAUGUAGUAGGAGGGAGGGUACUAGAAGGACGAGGAAGAAG [JR_SS2_Sub067] (puzzle: Same State 2) ?
51.5

Give the measured apparent KD of MS2 coat protein of GACAAUCUAUCUCAGGAUAUCAUGUCAAAGACAUGAGGAUCACCCAUGUACCAGGAAACUGGUUAUGAGAAGGGAGAUAGAUUGG [Mat - Same State 2 - Mod - D27] (puzzle: Same State 2) .
5660

Name the recorded apparent KD of MS2 coat protein for GCGAAACAUGAGGAUCACCCAUGUAUGGCGGGCACAGGAUAUCGUGGUUCGCUCAUACUACGAGAAGGGUGAAAAG [Orqu] (puzzle: Same State 1) .
16.9
